Where do the numbers come from? From patent US20230158157A1.

Provide the reported DC50 of each item.
test target: EML4-ALK (Homo sapiens)
Construct: endogenous in cells; host or cells: H3122 (NSCLC), single-cell clone after CRISPR knock-in of HiBit; the other entry of the earlier key: EML4 (Q9HC35, Echinoderm microtubule-associated protein-like 4)
test method notes: EML4-ALK HiBit degradation assay in CRISPR-tagged H3122 cells (Nano-Glo HiBit Lytic Detection)
Assay type: cell-based
measurement conditions: Table 3; H3122 cells, 16 hours; read-out: ALK Degradation (H3122 cells) DC50
Numbers only, in nM.

- compound: "COc1cc(C2CCN(CCCC#Cc3cccc4c3CN(C3CCC(=O)NC3=O)C4=O)CC2)c(C)cc1Nc1ncc(Cl)c(Nc2ccccc2S(=O)(=O)C(C)C)n1 (stereo not shown)"
  scale unit: "nM"
  DC50: 3

Hey, quick one: what's DC50 for each of these?
1. COc1cc(C2CCN(CCCCC#Cc3cccc4c3CN(C3CCC(=O)NC3=O)C4=O)CC2)c(C)cc1Nc1ncc(Cl)c(Nc2ccccc2S(=O)(=O)C(C)C)n1 (stereo not shown)
2. COc1cc(C2CCN(CCCCCC#Cc3cccc4c3C(=O)N(C3CCC(=O)NC3=O)C4=O)CC2)c(C)cc1Nc1ncc(Cl)c(Nc2ccccc2S(=O)(=O)C(C)C)n1 (stereo not shown)
3. COc1cc(N2CCC(NC(=O)CCCCCCCCCC(=O)N[C@H](C(=O)N3C[C@H](O)C[C@H]3C(=O)NCc3ccc(-c4scnc4C)cc3)C(C)(C)C)CC2)ccc1Nc1ncc(Cl)c(Nc2ccccc2P(C)(C)=O)n1

# output
1: 1; 2: 49; 3: 9

---

test target: EML4-ALK (Homo sapiens, UniProt Q9UM73)
Construct: endogenous in cells; host or cells: H3122 (NSCLC), single-cell clone after CRISPR knock-in of HiBit; the other entry of the earlier key: EML4 (Q9HC35, Echinoderm microtubule-associated protein-like 4)
Sequence (Q9UM73 with tags, fused parts or gaps): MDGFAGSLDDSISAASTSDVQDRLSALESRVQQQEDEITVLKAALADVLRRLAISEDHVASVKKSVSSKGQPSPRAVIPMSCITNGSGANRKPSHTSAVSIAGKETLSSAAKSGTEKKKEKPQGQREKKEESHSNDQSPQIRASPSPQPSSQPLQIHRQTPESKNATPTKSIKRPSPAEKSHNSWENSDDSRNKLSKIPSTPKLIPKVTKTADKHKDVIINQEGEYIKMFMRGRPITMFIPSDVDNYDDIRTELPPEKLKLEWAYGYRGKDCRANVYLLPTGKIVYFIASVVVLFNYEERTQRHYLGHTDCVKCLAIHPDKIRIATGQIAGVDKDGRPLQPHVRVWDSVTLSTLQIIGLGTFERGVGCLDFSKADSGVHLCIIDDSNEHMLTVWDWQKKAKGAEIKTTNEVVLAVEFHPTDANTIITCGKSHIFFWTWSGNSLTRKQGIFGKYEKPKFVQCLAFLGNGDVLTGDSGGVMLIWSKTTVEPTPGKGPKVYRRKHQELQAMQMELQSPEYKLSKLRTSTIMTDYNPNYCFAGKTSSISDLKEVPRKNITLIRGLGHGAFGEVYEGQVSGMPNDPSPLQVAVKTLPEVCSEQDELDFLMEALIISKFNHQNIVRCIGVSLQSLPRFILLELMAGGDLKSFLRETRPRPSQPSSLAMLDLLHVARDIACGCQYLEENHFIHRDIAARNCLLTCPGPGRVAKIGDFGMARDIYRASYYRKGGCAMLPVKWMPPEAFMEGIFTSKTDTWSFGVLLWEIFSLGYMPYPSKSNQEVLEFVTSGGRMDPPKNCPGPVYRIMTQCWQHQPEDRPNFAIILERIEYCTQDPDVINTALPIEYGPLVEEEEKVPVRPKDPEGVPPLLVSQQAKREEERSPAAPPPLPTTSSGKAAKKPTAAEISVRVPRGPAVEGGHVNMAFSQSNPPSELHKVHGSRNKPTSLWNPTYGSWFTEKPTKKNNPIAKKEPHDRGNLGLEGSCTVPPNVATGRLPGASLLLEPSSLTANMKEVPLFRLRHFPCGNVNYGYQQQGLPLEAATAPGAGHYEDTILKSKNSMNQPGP
test method notes: EML4-ALK HiBit degradation assay in CRISPR-tagged H3122 cells (Nano-Glo HiBit Lytic Detection)
Assay type: cell-based
measurement conditions: NCI-H3122, Table 1, first Dmax column; H3122 EML4-ALK-HiBit, 16 hours; read-out: Degradation Dmax
Note to self: values exactly at 50% are 1.0. So Dmax at or above 50% is 1.0, below is 0.0.

Field: example entries. Status: answers known.
- molecule: "COc1cc(CCN(C)C(=O)CCCNc2cccc3c2C(=O)N(C2CCC(=O)NC2=O)C3=O)c(C)cc1Nc1ncc(Cl)c(Nc2ccccc2S(=O)(=O)C(C)C)n1 (centres unmarked)"
  category: 0.0
- molecule: "COc1cc(CCN(C)C(=O)CCCNC(=O)COc2cccc3c2C(=O)N(C2CCC(=O)NC2=O)C3=O)c(C)cc1Nc1ncc(Cl)c(Nc2ccccc2S(=O)(=O)C(C)C)n1 (centres unmarked)"
  category: 0.0
- molecule: "CC[C@@H](NC(=O)C1CC(NC(=O)CCCCCCC(=O)N(C)CCc2cc(OC)c(Nc3ncc(Cl)c(Nc4ccccc4S(=O)(=O)C(C)C)n3)cc2C)CN1C(=O)[C@@H](NC(=O)[C@H](C)NC)C(C)(C)C)c1ccccc1 (some centres unmarked)"
  category: 1.0
- molecule: "COc1cc(CCN(C)C(=O)CCOCCC(=O)N[C@H](C(=O)N2C[C@H](O)C[C@H]2C(=O)N[C@@H](C)c2ccc(-c3scnc3C)cc2)C(C)(C)C)c(C)cc1Nc1ncc(Cl)c(Nc2ccccc2S(=O)(=O)C(C)C)n1"
  category: 1.0

Next item in the queue.
# input Exam item: decide whether the reported Dmax for `COc1cc(CCN(C)C(=O)CCCCCCCCC(=O)N[C@H](C(=O)N2C[C@H](O)C[C@H]2C(=O)N[C@@H](C)c2ccc(-c3scnc3C)cc2)C(C)(C)C)c(C)cc1Nc1ncc(Cl)c(Nc2ccccc2S(=O)(=O)C(C)C)n1` is at least 50%.
# output 0.0

---

test target: EML4-ALK (Homo sapiens)
Construct: endogenous in cells; host or cells: H3122 (NSCLC), single-cell clone after CRISPR knock-in of HiBit; the other entry of the earlier key: EML4 (Q9HC35, Echinoderm microtubule-associated protein-like 4)
test method notes: EML4-ALK HiBit degradation assay in CRISPR-tagged H3122 cells (Nano-Glo HiBit Lytic Detection)
Assay type: cell-based
measurement conditions: NCI-H3122, Table 1; average Dmax; read-out: Degradation Avg. Dmax
experimental endpoint: Dmax (%)
Give bare numbers, in %.

See these solved cases before continuing.
- compound: "COc1cc(CCNCCCC(=O)N[C@H](C(=O)N2C[C@H](O)C[C@H]2C(=O)N[C@@H](C)c2ccc(-c3scnc3C)cc2)C(C)(C)C)c(C)cc1Nc1ncc(Cl)c(Nc2ccccc2S(=O)(=O)C(C)C)n1 [Compound 43]"
  scale unit: "%"
  reading: 38.1
- compound: "COc1cc(CCN(C)C(=O)CCCCCNC(=O)COc2cccc3c2C(=O)N(C2CCC(=O)NC2=O)C3=O)c(C)cc1Nc1ncc(Cl)c(Nc2ccccc2S(=O)(=O)C(C)C)n1 (stereo not drawn) [compound 6]"
  scale unit: "%"
  reading: 32.2

# input # return recorded Dmax for input COc1cc(CCN(C)C(=O)CCCCCCCCNC(=O)COc2cccc3c2C(=O)N(C2CCC(=O)NC2=O)C3=O)c(C)cc1Nc1ncc(Cl)c(Nc2ccccc2S(=O)(=O)C(C)C)n1 (stereo not drawn) [compound 7]
# output 47.8

---

test target: EML4-ALK (Homo sapiens)
Construct: endogenous in cells; host or cells: H3122 (NSCLC), single-cell clone after CRISPR knock-in of HiBit; the other entry of the earlier key: EML4 (Q9HC35, Echinoderm microtubule-associated protein-like 4)
test method notes: EML4-ALK HiBit degradation assay in CRISPR-tagged H3122 cells (Nano-Glo HiBit Lytic Detection)
Format: cell-based
measurement conditions: Table 1, first DC50 column; H3122 EML4-ALK-HiBit, 16 hours; read-out: Degradation DC50
Mark each entry label 1 if its DC50 sits below 400 nM, and label 0 for all others.

Field: example entries. Status: answers known.
- compound: "COc1cc(CCN(C)C(=O)CCCCCCCCNC(=O)COc2cccc3c2C(=O)N(C2CCC(=O)NC2=O)C3=O)c(C)cc1Nc1ncc(Cl)c(Nc2ccccc2S(=O)(=O)C(C)C)n1 (stereo not shown)"
  category: "label 1"
- compound: "COc1cc(CCN(C)C(=O)CCCNc2cccc3c2C(=O)N(C2CCC(=O)NC2=O)C3=O)c(C)cc1Nc1ncc(Cl)c(Nc2ccccc2S(=O)(=O)C(C)C)n1 (stereo not shown)"
  category: "label 1"
- compound: "COc1cc(CCN(C)C(=O)CCOCCOCCOCC#Cc2cccc3c2C(=O)N(C2CCC(=O)NC2=O)C3=O)c(C)cc1Nc1ncc(Cl)c(Nc2ccccc2S(=O)(=O)C(C)C)n1 (stereo not shown)"
  category: "label 0"
- compound: "COc1cc(CCN(C)C(=O)CCCCCNc2cccc3c2C(=O)N(C2CCC(=O)NC2=O)C3=O)c(C)cc1Nc1ncc(Cl)c(Nc2ccccc2S(=O)(=O)C(C)C)n1 (stereo not shown)"
  category: "label 1"
- compound: "COc1cc(CCNCCCC(=O)N[C@H](C(=O)N2C[C@H](O)C[C@H]2C(=O)N[C@@H](C)c2ccc(-c3scnc3C)cc2)C(C)(C)C)c(C)cc1Nc1ncc(Cl)c(Nc2ccccc2S(=O)(=O)C(C)C)n1"
  category: "label 0"

# input Just wondering, is DC50 of COc1cc(CCN(C)C(=O)CCCCCC#Cc2cccc3c2C(=O)N(C2CCC(=O)NC2=O)C3=O)c(C)cc1Nc1ncc(Cl)c(Nc2ccccc2S(=O)(=O)C(C)C)n1 (stereo not shown) below 400 nM?
# output label 1

# input Just wondering, is DC50 of COc1cc(CCN(C)C(=O)CCCNC(=O)COc2cccc3c2C(=O)N(C2CCC(=O)NC2=O)C3=O)c(C)cc1Nc1ncc(Cl)c(Nc2ccccc2S(=O)(=O)C(C)C)n1 (stereo not shown) below 400 nM?
# output label 1

# input Just wondering, is DC50 of COc1cc(CCN(C)C(=O)CCCC#Cc2cccc3c2C(=O)N(C2CCC(=O)NC2=O)C3=O)c(C)cc1Nc1ncc(Cl)c(Nc2ccccc2S(=O)(=O)C(C)C)n1 (stereo not shown) below 400 nM?
# output label 1

---

test target: EML4-ALK (Homo sapiens)
Construct: endogenous in cells; host or cells: H3122 (NSCLC), single-cell clone after CRISPR knock-in of HiBit; the other entry of the earlier key: EML4 (Q9HC35, Echinoderm microtubule-associated protein-like 4)
test method notes: EML4-ALK HiBit degradation assay in CRISPR-tagged H3122 cells (Nano-Glo HiBit Lytic Detection)
Type: cell-based
measurement conditions: Table 1; average DC50; read-out: Degradation Avg. DC50
Description: NSCLC cell line H3122 was subjected to CRISPR to express EML4-ALK with HiBit-tag on its c-terminal. Single-cell clone was selected and expanded for the following assays that monitor endogenous EML4-ALK level in high throughput manner. […] HiBit signal was assessed using Nano-Glo® HiBit Lytic Detection System (Promega™). […] NSCLC cell line H3122 was subjected to CRISPR to express EML4-ALK with HiBit-tag on its c-terminus. […] HiBit signal was assessed using Nano-Glo® HiBit Lytic Detection System (Promega™). […]
Provide the reported DC50 of each item.
One number for each entry, in nM.

- molecule: "COc1cc(CCN(C)C(=O)CCOCCC(=O)N[C@H](C(=O)N2C[C@H](O)C[C@H]2C(=O)N[C@@H](C)c2ccc(-c3scnc3C)cc2)C(C)(C)C)c(C)cc1Nc1ncc(Cl)c(Nc2ccccc2S(=O)(=O)C(C)C)n1"
  scale unit: "nM"
  DC50: 160
- molecule: "COc1cc(CCN(C)C(=O)CCOCCOCCOCC#Cc2cccc3c2C(=O)N(C2CCC(=O)NC2=O)C3=O)c(C)cc1Nc1ncc(Cl)c(Nc2ccccc2S(=O)(=O)C(C)C)n1 (centres unmarked)"
  scale unit: "nM"
  DC50: 302
- molecule: "COc1cc(CCN(C)CCCCCOc2cc(-c3scnc3C)ccc2[C@H](C)NC(=O)[C@@H]2C[C@@H](O)CN2C(=O)[C@@H](NC(C)=O)C(C)(C)C)c(C)cc1Nc1ncc(Cl)c(Nc2ccccc2S(=O)(=O)C(C)C)n1"
  scale unit: "nM"
  DC50: 62

Hey, quick one: what's DC50 for each of these?
1. COc1cc(CCN(C)C(=O)CCOCCOCCNC(=O)COc2cccc3c2C(=O)N(C2CCC(=O)NC2=O)C3=O)c(C)cc1Nc1ncc(Cl)c(Nc2ccccc2S(=O)(=O)C(C)C)n1 (centres unmarked)
2. CC[C@@H](NC(=O)[C@@H]1C[C@H](NC(=O)CCCCCCCC(=O)N(C)CCc2cc(OC)c(Nc3ncc(Cl)c(Nc4ccccc4S(=O)(=O)C(C)C)n3)cc2C)CN1C(=O)[C@@H](NC(=O)[C@H](C)NC)C(C)(C)C)c1ccccc1

# output
1. 171
2. 195
